Entries annotated with measured IC50
biological target: full-length human ATR protein (Homo sapiens (Human), UniProt Q13535); experiment: Binding assay ATR (TR-FRET tracer displacement); conditions: tracer A, TR-FRET; read-out: ATR binding (tracer A) IC50
Sequence (Q13535 other isoform, or with tags, fused parts or gaps): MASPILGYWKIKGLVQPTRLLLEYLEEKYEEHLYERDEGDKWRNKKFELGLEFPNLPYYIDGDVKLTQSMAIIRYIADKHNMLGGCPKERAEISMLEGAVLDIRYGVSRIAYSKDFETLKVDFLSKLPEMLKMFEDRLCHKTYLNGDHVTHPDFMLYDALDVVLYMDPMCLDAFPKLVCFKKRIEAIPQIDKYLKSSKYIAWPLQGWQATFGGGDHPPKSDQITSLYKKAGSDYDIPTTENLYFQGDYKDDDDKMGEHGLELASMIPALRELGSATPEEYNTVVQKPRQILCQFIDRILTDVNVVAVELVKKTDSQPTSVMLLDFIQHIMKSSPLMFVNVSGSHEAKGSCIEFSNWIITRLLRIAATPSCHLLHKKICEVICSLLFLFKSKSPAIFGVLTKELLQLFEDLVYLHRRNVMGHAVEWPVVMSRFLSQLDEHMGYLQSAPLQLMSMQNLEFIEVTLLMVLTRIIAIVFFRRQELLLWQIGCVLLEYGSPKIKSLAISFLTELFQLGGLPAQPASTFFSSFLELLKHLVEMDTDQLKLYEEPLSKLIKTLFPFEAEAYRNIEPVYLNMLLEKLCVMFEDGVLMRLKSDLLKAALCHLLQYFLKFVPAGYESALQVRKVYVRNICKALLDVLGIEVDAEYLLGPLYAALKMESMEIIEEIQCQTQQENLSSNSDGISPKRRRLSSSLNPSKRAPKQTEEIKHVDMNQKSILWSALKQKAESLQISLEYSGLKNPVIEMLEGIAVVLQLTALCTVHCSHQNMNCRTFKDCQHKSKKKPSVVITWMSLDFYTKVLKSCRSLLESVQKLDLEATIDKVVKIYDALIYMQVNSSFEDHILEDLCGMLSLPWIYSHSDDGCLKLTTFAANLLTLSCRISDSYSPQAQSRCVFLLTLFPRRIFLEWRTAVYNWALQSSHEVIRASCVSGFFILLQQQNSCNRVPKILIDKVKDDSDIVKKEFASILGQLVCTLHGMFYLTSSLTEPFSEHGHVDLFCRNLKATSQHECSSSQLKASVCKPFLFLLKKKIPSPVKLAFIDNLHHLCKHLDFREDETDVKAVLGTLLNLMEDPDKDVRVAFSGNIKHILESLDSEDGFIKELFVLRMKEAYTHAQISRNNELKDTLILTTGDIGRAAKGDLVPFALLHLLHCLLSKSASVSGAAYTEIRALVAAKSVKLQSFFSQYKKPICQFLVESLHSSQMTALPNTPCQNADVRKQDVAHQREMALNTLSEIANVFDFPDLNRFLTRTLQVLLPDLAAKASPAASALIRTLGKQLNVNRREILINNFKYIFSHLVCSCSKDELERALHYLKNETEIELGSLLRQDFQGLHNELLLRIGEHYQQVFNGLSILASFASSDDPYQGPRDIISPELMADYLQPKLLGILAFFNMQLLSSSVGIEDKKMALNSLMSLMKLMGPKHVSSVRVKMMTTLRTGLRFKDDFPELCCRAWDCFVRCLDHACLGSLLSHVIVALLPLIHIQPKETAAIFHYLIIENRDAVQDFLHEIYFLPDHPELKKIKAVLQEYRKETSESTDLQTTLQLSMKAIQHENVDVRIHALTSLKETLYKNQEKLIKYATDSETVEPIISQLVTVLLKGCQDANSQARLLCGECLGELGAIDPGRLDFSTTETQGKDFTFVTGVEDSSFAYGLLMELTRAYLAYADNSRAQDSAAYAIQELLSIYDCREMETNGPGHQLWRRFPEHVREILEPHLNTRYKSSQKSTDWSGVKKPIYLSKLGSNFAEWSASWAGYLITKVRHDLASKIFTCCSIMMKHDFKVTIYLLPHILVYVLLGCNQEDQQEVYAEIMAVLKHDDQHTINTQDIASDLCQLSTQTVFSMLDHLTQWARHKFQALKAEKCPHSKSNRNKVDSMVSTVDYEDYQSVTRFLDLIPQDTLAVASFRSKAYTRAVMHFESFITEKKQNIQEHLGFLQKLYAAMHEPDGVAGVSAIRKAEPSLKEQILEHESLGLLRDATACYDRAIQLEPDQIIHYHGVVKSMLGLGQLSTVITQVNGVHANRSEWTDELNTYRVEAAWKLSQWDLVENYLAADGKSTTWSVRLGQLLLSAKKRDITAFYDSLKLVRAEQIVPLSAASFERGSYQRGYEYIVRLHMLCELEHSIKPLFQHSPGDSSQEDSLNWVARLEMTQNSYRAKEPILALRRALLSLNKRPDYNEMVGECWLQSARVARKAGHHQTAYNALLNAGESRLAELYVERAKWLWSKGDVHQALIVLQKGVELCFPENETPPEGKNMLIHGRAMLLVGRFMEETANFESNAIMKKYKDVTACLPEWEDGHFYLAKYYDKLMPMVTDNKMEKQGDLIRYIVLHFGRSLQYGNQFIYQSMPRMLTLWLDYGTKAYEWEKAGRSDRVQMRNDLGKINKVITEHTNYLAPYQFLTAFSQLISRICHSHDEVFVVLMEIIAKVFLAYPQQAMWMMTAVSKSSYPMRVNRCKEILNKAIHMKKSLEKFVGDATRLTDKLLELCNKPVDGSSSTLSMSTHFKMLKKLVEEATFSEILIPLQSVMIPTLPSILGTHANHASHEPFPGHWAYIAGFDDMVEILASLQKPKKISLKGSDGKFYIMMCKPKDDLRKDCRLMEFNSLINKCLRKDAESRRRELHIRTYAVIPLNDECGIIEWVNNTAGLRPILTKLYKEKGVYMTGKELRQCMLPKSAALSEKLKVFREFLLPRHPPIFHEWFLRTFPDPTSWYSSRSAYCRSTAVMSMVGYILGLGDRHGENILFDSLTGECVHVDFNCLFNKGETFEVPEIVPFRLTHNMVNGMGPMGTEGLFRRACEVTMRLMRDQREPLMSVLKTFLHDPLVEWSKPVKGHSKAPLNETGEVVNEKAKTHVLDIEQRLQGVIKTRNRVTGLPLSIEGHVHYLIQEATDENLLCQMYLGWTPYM
Sequence (Q8WXE1 other isoform, or with tags, fused parts or gaps partner): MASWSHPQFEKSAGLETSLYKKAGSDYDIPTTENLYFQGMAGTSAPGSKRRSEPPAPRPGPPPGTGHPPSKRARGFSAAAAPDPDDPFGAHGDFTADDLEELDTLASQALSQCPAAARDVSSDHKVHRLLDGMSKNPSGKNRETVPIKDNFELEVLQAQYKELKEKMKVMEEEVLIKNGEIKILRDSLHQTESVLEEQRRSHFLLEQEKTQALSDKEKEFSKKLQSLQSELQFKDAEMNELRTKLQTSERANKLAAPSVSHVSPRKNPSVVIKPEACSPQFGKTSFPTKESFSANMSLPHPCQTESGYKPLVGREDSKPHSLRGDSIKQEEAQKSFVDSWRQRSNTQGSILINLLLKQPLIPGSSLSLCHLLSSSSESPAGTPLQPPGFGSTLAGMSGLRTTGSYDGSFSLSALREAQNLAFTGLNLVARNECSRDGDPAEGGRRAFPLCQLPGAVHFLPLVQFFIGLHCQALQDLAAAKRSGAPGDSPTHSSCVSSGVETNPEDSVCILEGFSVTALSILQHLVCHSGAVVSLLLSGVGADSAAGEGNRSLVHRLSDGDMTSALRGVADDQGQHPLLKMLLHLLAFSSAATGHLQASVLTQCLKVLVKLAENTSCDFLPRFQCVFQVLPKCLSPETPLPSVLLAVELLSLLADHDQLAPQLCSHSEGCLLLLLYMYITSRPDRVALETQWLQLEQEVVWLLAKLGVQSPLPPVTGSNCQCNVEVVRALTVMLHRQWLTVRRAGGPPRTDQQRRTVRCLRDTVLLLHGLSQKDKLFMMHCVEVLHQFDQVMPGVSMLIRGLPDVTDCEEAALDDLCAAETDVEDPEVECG

molecule | IC50 (nM)
FC(F)(F)c1cccc(-c2cc(N3CCOCC3)nc3c(-c4ccn[nH]4)nccc23)c1 [Example 303] | 86.1
CC(C)Oc1ncccc1-c1cc(N2CCOC[C@H]2C)nc2c(-c3ccn[nH]3)nccc12 [Example 219] | 132
Cc1ccsc1-c1cc(N2CCOC[C@H]2C)nc2c(-c3ccn[nH]3)nccc12 [Example 99] | 6.38
OC[C@H]1CCCN(c2cc(N3CCOCC3)nc3c(-c4ccn[nH]4)nccc23)C1 (stereo in doubt) [Example 437] | 118
C[C@@H]1COCCN1c1cc(N2CCC[C@H]2C(N)=O)c2ccnc(-c3ccn[nH]3)c2n1 [Example 154] | 55
C[C@@H]1COCCN1c1cc(-c2c[nH]nc2C(F)(F)F)c2ccnc(-c3ccn[nH]3)c2n1 [Example 252] | 6.45
COc1ccc(-c2cc(N3CCOCC3)nc3c(-c4ccn[nH]4)nccc23)cc1 [Example 309] | 146
COC(=O)c1cc(-c2cc(N3CCOCC3)nc3c(-c4ccn[nH]4)nccc23)cs1 [Example 403] | 194
Cc1nnc(-c2cc(N3CCOC[C@H]3C)nc3c(-c4ccn[nH]4)nccc23)o1 [Example 136] | 35.8
C[C@@H]1COCCN1c1cc(-c2cccn2C)c2ccnc(-c3ccn[nH]3)c2n1 [Example 91] | 10
c1ccc(Sc2cc(N3CCOCC3)nc3c(-c4ccn[nH]4)nccc23)cc1 [Example 207] | 542
c1csc(-c2cc(N3CCOCC3)nc3c(-c4ccn[nH]4)nccc23)c1 [Example 371] | 122
OC1CCN(c2cc(N3CCOCC3)nc3c(-c4ccn[nH]4)nccc23)CC1 [Example 409] | 139
C[C@@H]1COCCN1c1cc(-c2cnc(S(C)(=O)=O)c(F)c2)c2ccnc(-c3ccn[nH]3)c2n1 [Example 147] | 45.4
C[C@@H]1COCCN1c1cc(-c2cc(F)ccc2N)c2ccnc(-c3ccn[nH]3)c2n1 [Example 75] | 6.97
[O-][S+](c1ccccc1)c1cc(N2CCOCC2)nc2c(-c3ccn[nH]3)nccc12 (stereo not shown) [Example 201] | 40

###

target: UniProt:Q13535; assay: Binding assay ATR (TR-FRET tracer displacement); conditions: tracer A, TR-FRET; read-out: ATR binding (tracer A) IC50
pIC50: −log10 of the molar value.
// reported pIC50 per item

compound | pIC50
c1cc(-c2cc(N3CCOCC3)nc3c(-c4ccn[nH]4)nccc23)ccn1 [Example 221] | 6.71
Cc1cc(S(C)(=O)=O)ncc1-c1cc(N2CCOCC2)nc2c(-c3ccn[nH]3)nccc12 [Example 6] | 7.16
C[C@@H]1COCCN1c1cc(C#N)c2ccnc(-c3ccn[nH]3)c2n1 [Example 35] | 6.91
C[C@@H]1COCCN1c1cc(-c2cc(S(C)(=O)=O)ccc2F)c2ccnc(-c3ccn[nH]3)c2n1 [Example 150] | 7.30

###

Listed next: entries and their corresponding pIC50.
biological target: full-length human ATR protein (Homo sapiens (Human), UniProt Q13535); assay: Binding assay ATR (TR-FRET tracer displacement); conditions: tracer A, TR-FRET; read-out: ATR binding (tracer A) IC50
pIC50: −log10 of the molar value.
measuredProperty: pIC50

compound | systemName | measuredProperty | observedValue
c1ccc(COc2cc(N3CCOCC3)nc3c(-c4cc[nH]n4)nccc23)cc1 [Example 50] | full-length human ATR protein (Homo sapiens (Human), UniProt Q13535) | pIC50 | 6.39
C[C@@H]1COCCN1c1cc(C(C)(C)O)c2ccnc(-c3ccn[nH]3)c2n1 [Example 128] | full-length human ATR protein (Homo sapiens (Human), UniProt Q13535) | pIC50 | 7.49
C[C@@H]1COCCN1c1cc(N2CCN(S(C)(=O)=O)CC2)c2ccnc(-c3ccn[nH]3)c2n1 [Example 82] | full-length human ATR protein (Homo sapiens (Human), UniProt Q13535) | pIC50 | 8.31
OCC1CCN(c2cc(N3CCOCC3)nc3c(-c4ccn[nH]4)nccc23)CC1 [Example 429] | full-length human ATR protein (Homo sapiens (Human), UniProt Q13535) | pIC50 | 7.35
c1cc(-c2cc(N3CCOCC3)nc3c(-c4ccn[nH]4)nccc23)c2cc[nH]c2c1 [Example 294] | full-length human ATR protein (Homo sapiens (Human), UniProt Q13535) | pIC50 | 7.43
C[C@@H]1COCCN1c1cc(-c2cnn(C3CCC3)c2)c2ccnc(-c3ccn[nH]3)c2n1 [Example 253] | full-length human ATR protein (Homo sapiens (Human), UniProt Q13535) | pIC50 | 7.47
Fc1ccc(-c2cc(N3CCOCC3)nc3c(-c4ccn[nH]4)nccc23)c(F)n1 [Example 366] | full-length human ATR protein (Homo sapiens (Human), UniProt Q13535) | pIC50 | 7.28
Cc1ccc(-c2cc(N3CCOCC3)nc3c(-c4ccn[nH]4)nccc23)s1 [Example 381] | full-length human ATR protein (Homo sapiens (Human), UniProt Q13535) | pIC50 | 6.92
Cc1ccncc1-c1cc(N2CCOCC2)nc2c(-c3ccn[nH]3)nccc12 [Example 292] | full-length human ATR protein (Homo sapiens (Human), UniProt Q13535) | pIC50 | 6.97
COP(=O)(OC)c1ccc(-c2cc(N3CCOCC3)nc3c(-c4ccn[nH]4)nccc23)cc1 [Example 9] | full-length human ATR protein (Homo sapiens (Human), UniProt Q13535) | pIC50 | 6.92
C[C@@H]1COCCN1c1cc(C2CCNCC2)c2ccnc(-c3ccn[nH]3)c2n1 [Example 251] | full-length human ATR protein (Homo sapiens (Human), UniProt Q13535) | pIC50 | 7.56
C[C@@H]1COCCN1c1cc(-c2sccc2Cl)c2ccnc(-c3ccn[nH]3)c2n1 [Example 102] | full-length human ATR protein (Homo sapiens (Human), UniProt Q13535) | pIC50 | 7.91
c1ccc2c(c1)CCCN2c1cc(N2CCOCC2)nc2c(-c3ccn[nH]3)nccc12 [Example 418] | full-length human ATR protein (Homo sapiens (Human), UniProt Q13535) | pIC50 | 7.03
C[C@@H]1COCCN1c1cc(-c2cccc(F)n2)c2ccnc(-c3ccn[nH]3)c2n1 [Example 152] | full-length human ATR protein (Homo sapiens (Human), UniProt Q13535) | pIC50 | 7.29
Cc1cncc(-c2cc(N3CCOCC3)nc3c(-c4ccn[nH]4)nccc23)c1 [Example 352] | full-length human ATR protein (Homo sapiens (Human), UniProt Q13535) | pIC50 | 6.76
C[C@@H]1COCCN1c1cc(N(C)c2ccc(F)cc2)c2ccnc(-c3ccn[nH]3)c2n1 [Example 87] | full-length human ATR protein (Homo sapiens (Human), UniProt Q13535) | pIC50 | 8.06
C[C@@H]1COCCN1c1cc(N=S(C)(=O)c2ccccc2F)c2ccnc(-c3ccn[nH]3)c2n1 (single isomer, unassigned) [Example 140] | full-length human ATR protein (Homo sapiens (Human), UniProt Q13535) | pIC50 | 7.12
C[C@@H]1COCCN1c1cc(OCCNC(=O)OC(C)(C)C)c2ccnc(-c3ccn[nH]3)c2n1 [Example 56] | full-length human ATR protein (Homo sapiens (Human), UniProt Q13535) | pIC50 | 6.12
C[C@@H]1COCCN1c1cc(N2CCNCC2)c2ccnc(-c3ccn[nH]3)c2n1 [Example 66] | full-length human ATR protein (Homo sapiens (Human), UniProt Q13535) | pIC50 | 7.06
C[C@@H]1COCCN1c1cc(-c2cnc3n2CCC3)c2ccnc(-c3ccn[nH]3)c2n1 [Example 118] | full-length human ATR protein (Homo sapiens (Human), UniProt Q13535) | pIC50 | 8.00
C[C@@H]1COCCN1c1cc(-c2ccnn2CCF)c2ccnc(-c3ccn[nH]3)c2n1 [Example 159] | full-length human ATR protein (Homo sapiens (Human), UniProt Q13535) | pIC50 | 7.78
CCP(=O)(CC)c1cc(N2CCOC[C@H]2C)nc2c(-c3ccn[nH]3)nccc12 [Example 143] | full-length human ATR protein (Homo sapiens (Human), UniProt Q13535) | pIC50 | 7.56
CC(=O)Nc1ccccc1-c1cc(N2CCOC[C@H]2C)nc2c(-c3ccn[nH]3)nccc12 [Example 166] | full-length human ATR protein (Homo sapiens (Human), UniProt Q13535) | pIC50 | 6.44
Cc1cn[nH]c1-c1cc(N2CCOC[C@H]2C)nc2c(-c3ccn[nH]3)nccc12 [Example 149] | full-length human ATR protein (Homo sapiens (Human), UniProt Q13535) | pIC50 | 7.32

Each recorded value in this set is attributed to patent US9549932B2.
